Reference for the values: paper PMC9653166

# experimental.system: Sirt3 (Homo sapiens, UniProt Q9NTG7)
# Sequence (Q9NTG7 114-380): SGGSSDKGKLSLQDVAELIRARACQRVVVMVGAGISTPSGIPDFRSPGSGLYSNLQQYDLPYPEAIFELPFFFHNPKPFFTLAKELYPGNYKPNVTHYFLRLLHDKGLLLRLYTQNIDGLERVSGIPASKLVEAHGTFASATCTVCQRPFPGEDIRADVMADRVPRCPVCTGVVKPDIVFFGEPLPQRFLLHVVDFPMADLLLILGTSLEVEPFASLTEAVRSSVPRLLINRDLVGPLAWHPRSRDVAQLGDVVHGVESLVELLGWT
# experiment.description: Microscale thermophoresis binding to Sirt3
Parameter: Kd. Scope: all listed entries.
Your answer should be a plain number; it is taken to be in µM.

INSERT INTO results (compound, unit_info, value) VALUES
  ('CCOC(=O)C1=CN(C(=O)c2ccccc2)C=C(C(=O)OCC)C1c1ccsc1 [Compound 30]', 'µM', 138);

In the following, a different compound is considered.
Report Kd for CCOC(=O)C1=CN(C(=O)c2cc(OC)c(OC)c(OC)c2)C=C(C(=O)OCC)C1c1ccccc1 [Compound 31]
32

---

# experimental.system: Sirt5 (Homo sapiens, UniProt Q9NXA8)
# Sequence (Q9NXA8 34-302): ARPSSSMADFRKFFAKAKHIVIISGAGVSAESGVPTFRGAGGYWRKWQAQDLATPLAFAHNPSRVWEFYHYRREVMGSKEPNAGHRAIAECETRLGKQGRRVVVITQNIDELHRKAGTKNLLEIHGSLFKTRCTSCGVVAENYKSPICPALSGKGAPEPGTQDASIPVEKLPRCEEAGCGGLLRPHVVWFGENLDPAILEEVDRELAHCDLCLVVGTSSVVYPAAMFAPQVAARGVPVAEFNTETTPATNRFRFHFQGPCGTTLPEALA
# experiment.description: Coupled enzymatic desuccinylation assay, Sirt5 with CPS1-succK537 peptide
property.label: EC50

Report EC50 for CCOC(=O)C1=CN(C(=O)c2ccccc2)C=C(C(=O)OCC)C1c1ccsc1 [Compound 30]
~40 µM

---

Parameter: Sirt5 activation (CPS1-succK537 desuccinylation). Scope: all listed entries.
# experimental.system: UniProt Q9NXA8
# Sequence (Q9NXA8 34-302): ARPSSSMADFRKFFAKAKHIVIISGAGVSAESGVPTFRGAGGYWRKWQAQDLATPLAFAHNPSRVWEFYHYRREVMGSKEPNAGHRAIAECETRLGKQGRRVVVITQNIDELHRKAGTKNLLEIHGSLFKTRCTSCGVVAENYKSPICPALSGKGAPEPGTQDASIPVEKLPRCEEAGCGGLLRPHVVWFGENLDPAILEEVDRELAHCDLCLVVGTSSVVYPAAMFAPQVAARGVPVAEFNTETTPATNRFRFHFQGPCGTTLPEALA
# experiment.description: Coupled enzymatic desuccinylation assay, Sirt5 with CPS1-succK537 peptide
# Format: biochemical
# experimental.conditions: 100 μM compound

INSERT INTO measurements (compound, value) VALUES
  ('CCOC(=O)C1=CN(C(=O)c2cccc3ccccc23)C=C(C(=O)OCC)C1c1ccccc1 [Compound 21]', '2- to 3 fold'),
  ('CCOC(=O)C1=CN(C(=O)c2ccccc2)C=C(C(=O)OCC)C1c1ccsc1 [Compound 30]', '3- to 3.5 fold');

Report Sirt5 activation (CPS1-succK537 desuccinylation) for CCOC(=O)C1=CN(Cc2ccccc2)C=C(C(=O)OCC)C1c1cc2ccccc2s1 [Compound 9]
2- to 3 fold

Report Sirt5 activation (CPS1-succK537 desuccinylation) for CCOC(=O)C1=CN(C(=O)c2ccccc2)C=C(C(=O)OCC)C1c1ccoc1 [Compound 28]
3- to 3.5 fold

Report Sirt5 activation (CPS1-succK537 desuccinylation) for CCOC(=O)C1=CN(C(=O)c2cnccn2)C=C(C(=O)OCC)C1c1ccccc1 [Compound 23]
2- to 3 fold

---

# experimental.system: Sirt2 (Homo sapiens)
# Sequence (Q8IXJ6 43-356): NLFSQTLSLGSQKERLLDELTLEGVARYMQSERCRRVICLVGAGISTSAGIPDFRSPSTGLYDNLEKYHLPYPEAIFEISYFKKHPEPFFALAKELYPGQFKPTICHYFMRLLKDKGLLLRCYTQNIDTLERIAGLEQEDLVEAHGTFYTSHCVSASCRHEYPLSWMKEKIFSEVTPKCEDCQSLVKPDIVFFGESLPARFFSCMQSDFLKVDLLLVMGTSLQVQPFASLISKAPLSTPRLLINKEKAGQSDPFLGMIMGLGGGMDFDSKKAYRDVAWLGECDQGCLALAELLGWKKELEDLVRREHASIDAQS
# experiment.description: Coupled enzymatic deacetylation assay, Sirt2 with α-tubulin-acK25 peptide
# Format: biochemical
# experimental.conditions: coupled assay, 10 and 100 μM compound
property.label: Effect on Sirt2 activity (in words)

INSERT INTO assay_data (test_smiles, value) VALUES
  ('CCOC(=O)C1=CN(C(=O)c2cc(OC)c(OC)c(OC)c2)C=C(C(=O)OCC)C1c1ccco1', 'smaller effects'),
  ('CCOC(=O)C1=CN(C(=O)c2cc(OC)c(OC)c(OC)c2)C=C(C(=O)OCC)C1c1ccccc1', 'no significant effects'),
  ('CCOC(=O)C1=CN(C(=O)c2ccccc2)C=C(C(=O)OCC)C1c1ccsc1', 'no significant effects'),
  ('CCOC(=O)C1=CN(C(=O)c2cc(OC)c(OC)c(OC)c2)C=C(C(=O)OCC)C1c1ccoc1', 'smaller effects');
